The measurements presented in this section are drawn from PubChem BioAssay (NCATS).

Test: AP1 Signaling Pathway (AID 357);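 also: ME-180 reporter cells stimulated with EGF at its EC50 level; % is scaled to controls: 0 for no effect and ±100 for the full control effect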
Settings: ME-180 (cervical carcinoma) AP-1-bla reporter, EGF-induced, beta-lactamase ratio, 5 h; at 17.2 µM (top of the series) unless noted
Inconclusive results are not listed.
activity change, negative = inhibition values for the compounds below.
measurement_kind: activity change, negative = inhibition (%)

compound | measurement_kind | value_observed
O=C(C1=C(O)C(=O)N(CCCN2CCOCC2)C1c1ccccn1)c1cc2ccccc2o1 (stereo not drawn) | activity change, negative = inhibition | 0.283
CCC(C(=O)Nc1ncn[nH]1)(C(F)(F)F)C(F)(F)F | activity change, negative = inhibition | 3.02
COc1cccc(-c2nnc3sc(-c4ccc(Cl)cc4)nn23)c1 | activity change, negative = inhibition | 5.29
CC(=Nc1ccc(C)c(C)c1)C1=C(O)CCC1=O | activity change, negative = inhibition | 13.3
Cc1occc(=O)c1OC(=O)Nc1ccccc1 | activity change, negative = inhibition | 9.9
Cc1cccn2c(=O)c3cc(C#N)c(=N)n(Cc4ccncc4)c3nc12 | activity change, negative = inhibition | 6.9
COc1cccc(NC(=O)CSC2=C(C#N)C(c3ccco3)C3=C(CCCC3=O)N2)c1 (stereo not drawn) | activity change, negative = inhibition | -18.7
c1ccc2c(NCC3CCCO3)nc(-c3ccncc3)nc2c1 (stereo not drawn) | activity change, negative = inhibition | -9.19
COc1ccc(C(=O)Nc2ccccc2N2CCOCC2)cc1Br | activity change, negative = inhibition | -21.1
Cc1ccc(N(CC(=O)O)C2SC(=O)NC2=O)cc1 (stereo not drawn) | activity change, negative = inhibition | 12.3
Cc1c(C)n(C(=O)CSc2nccn2C)c2ccccc12 | activity change, negative = inhibition | 14.1
CCOC(=O)C1Cc2c([nH]c3ccccc23)C(C)N1 (stereo not drawn) | activity change, negative = inhibition | -10.7
CC(C)(C)c1nnc2sc(SCC(=O)c3ccccc3)nn2c1=O | activity change, negative = inhibition | 2.49
CCSc1nnc(NC(=O)C(C)(C(F)(F)F)C(F)(F)F)s1 | activity change, negative = inhibition | -11.1
COc1ccc(C2=CC(c3cccc(OC)c3)n3nnnc3N2)cc1 (stereo not drawn) | activity change, negative = inhibition | -24.4
COC(=O)c1ccc(C2/C(=C(\O)c3cccc(OC)c3)C(=O)C(=O)N2CCCN(C)C)cc1 (stereo not drawn) | activity change, negative = inhibition | 2.5
c1ccc(-c2nc(NCC3CCCO3)c3ccccc3n2)nc1 (stereo not drawn) | activity change, negative = inhibition | -1.55
O=C(OCCN1CCOCC1)c1ccc(OCCN2CCOCC2)cc1 | activity change, negative = inhibition | 1.65
CCOC(=O)CNC(=O)CCCCCC(=O)NCC(=O)OCC | activity change, negative = inhibition | 7.11
COCCOC(=O)c1c(C)nc(SCC(=O)Nc2ccc(OC)cc2)c(C#N)c1-c1ccco1 | activity change, negative = inhibition | -13.3
Cc1ccc(N(CN2C(=O)C3CC=CCC3C2=O)C(=O)c2ccco2)cc1Cl (stereo not drawn) | activity change, negative = inhibition | -4.76
COc1nnnc2c1sc1nc(N3CCOCC3)c3c(c12)CC(C)(C)OC3 | activity change, negative = inhibition | -3.49
Cc1ccc(N(CC(O)CN2CCCC2)S(=O)(=O)c2ccc(C)cc2)cc1 (stereo not drawn) | activity change, negative = inhibition | 0.0608
